Entry source: the supplement of paper PMC5908809

Tested on: normal primary NK cells, pool 2 (3 donors) (IL-2 2.5 ng/mL)
measurementDescription: percent inhibition of viability; higher = more inhibition
measurementConditions: 72 h; 10 nM
quantityKind: percent inhibition of viability (%)

O=NN(CCCl)C(=O)NCCCl [Carmustine] (max concentration tested 10000 nM)    3.84
O=C(/C=C\n1cnc(-c2cc(C(F)(F)F)cc(C(F)(F)F)c2)n1)NNc1cnccn1 [Selinexor] (max concentration tested 10000 nM)    14.1
O=C(c1ccc(F)c(F)c1Nc1ccc(I)cc1F)N1CC(O)([C@@H]2CCCCN2)C1 [Cobimetinib] (max concentration tested 1000 nM)    3.68
Cc1cnc(NC(=O)Nc2cc(Br)c(C)cc2OC[C@@H]2CNCCO2)cn1 [Rabusertib] (max concentration tested 1000 nM)    3.94
CCOC(=O)CCNc1cc(N2CCc3ccccc3CC2)nc(-c2ccccn2)n1 [GSK-J4] (max concentration tested 100000 nM)    -5.62
Cc1sc2c(c1C)C(c1ccc(Cl)cc1)=N[C@@H](CC(=O)Nc1ccc(O)cc1)c1nnc(C)n1-2 [OTX015] (max concentration tested 10000 nM)    6.42

----------
Test system: NKL (IL-2 2.5 ng/mL)
measurementDescription: percent inhibition of viability; higher = more inhibition
measurementConditions: 72 h; 1000 nM
percent inhibition of viability under 60% gets 1, anything at or over 60% gets 0.

COc1cc2c(cc1O)CC[C@@H]1[C@@H]2CC[C@]2(C)[C@@H](O)CC[C@@H]12 [2-methoxyestradiol] (max concentration tested 10000 nM)    0
CCn1c(-c2nonc2N)nc2cnc(Oc3cccc(NC(=O)c4ccc(OCCN5CCOCC5)cc4)c3)cc21 (max concentration tested 10000 nM)    1
FC(F)(F)c1ccc(/C=C/c2nc(COc3ccc(CCCCn4ccnn4)cc3)co2)cc1 [Mubritinib] (max concentration tested 1000 nM)    1
CCN1CCN(c2ccc(Nc3cc(N(C)C(=O)Nc4c(Cl)c(OC)cc(OC)c4Cl)ncn3)cc2)CC1 [NVP-BGJ398] (max concentration tested 1000 nM)    1
CCc1c2c(nc3ccc(OC(=O)N4CCC(N5CCCCC5)CC4)cc13)-c1cc3c(c(=O)n1C2)COC(=O)[C@]3(O)CC [Irinotecan] (max concentration tested 10000 nM)    0

----------
System: normal primary NK cells, pool 2 (3 donors) (IL-2 2.5 ng/mL)
measurementDescription: percent inhibition of viability; higher = more inhibition
measurementConditions: 72 h; 10 nM
// reported percent inhibition of viability per item
quantityKind: percent inhibition of viability (%)

O=C(Nc1ccc2[nH]nc(-c3ccncc3)c2c1)[C@@H]1CCN(CC(=O)N2CCN(c3ccc(-c4ncccn4)cc3)CC2)C1 (max concentration tested 10000 nM)    -5.45
CCc1c2c(nc3ccc(OC(=O)N4CCC(N5CCCCC5)CC4)cc13)-c1cc3c(c(=O)n1C2)COC(=O)[C@]3(O)CC [Irinotecan] (max concentration tested 10000 nM)    0.89
CNC(=O)c1ccc(N2C(=S)N(c3ccc(C#N)c(C(F)(F)F)c3)C(=O)C2(C)C)cc1F [Enzalutamide] (max concentration tested 10000 nM)    -3.87

----------
// reported relative IC50 per item
Tested on: SNK-6 (IL-2 2.5 ng/mL)
measurementDescription: relative IC50 (inflection point of fitted viability curve, relative to fitted max inhibition); higher = less sensitive
measurementConditions: 72 h
quantityKind: relative IC50

Cc1c2oc3c(C)ccc(C(=O)N[C@@H]4C(=O)N[C@H](C(C)C)C(=O)N5CCC[C@H]5C(=O)N(C)CC(=O)N(C)[C@@H](C(C)C)C(=O)O[C@@H]4C)c3nc-2c(C(=O)N[C@@H]2C(=O)N[C@H](C(C)C)C(=O)N3CCC[C@H]3C(=O)N(C)CC(=O)N(C)[C@@H](C(C)C)C(=O)O[C@@H]2C)c(N)c1=O [Dactinomycin]    0.00027 µM
Cc1ccc2nc(CN(CCN(Cc3nc4ccc(C)cc4[nH]3)Cc3nc4ccc(C)cc4[nH]3)Cc3nc4ccc(C)cc4[nH]3)[nH]c2c1    18.2 µM
